# target.or.system: HIV six-helix bundle of gp41 (IQN36 / C34) (Human immunodeficiency virus type 1 group M subtype B, UniProt P04578)
# assay.name: HIV-FRET IQN36/C34 homogeneous time resolved fluorescence test system (6-helix bundle formation)
Entries and their IC50 values follow.
measured.attribute: IC50

molecule="Cc1ccc(S(=O)(=O)Nc2ccc(Oc3ccc(NS(=O)(=O)c4ccc(C)cc4)c(-c4ccccc4)c3)cc2C(=O)O)cc1 [Compound 6]" measurement="3.16 µM"
molecule="Cc1ccc(S(=O)(=O)Nc2ccc(Oc3ccc4c(c3)CCCN4S(=O)(=O)c3ccc(C)cc3)cc2C(=O)O)cc1 [Compound 3]" measurement="2.88 µM"
molecule="Cc1ccc(S(=O)(=O)Nc2ccc(Oc3ccc(NS(=O)(=O)c4ccc(C)cc4)c(C(=O)O)c3)cc2OCC(C)C)cc1 [Compound 7]" measurement="3.27 µM"
molecule="Cc1ccc(S(=O)(=O)Nc2ccc(Oc3ccc(NS(=O)(=O)c4ccc(C)cc4)c(C(=O)O)c3)cc2NCc2ccccc2)cc1 [Compound 8]" measurement="2.27 µM"
molecule="CCNc1cc(Oc2ccc(NS(=O)(=O)c3ccc(C)cc3)c(C(=O)O)c2)ccc1NS(=O)(=O)c1ccc(C)cc1 [Compound 11]" measurement="2.47 µM"
molecule="COC(=O)c1cc(Cc2cc(Cc3ccc(NS(=O)(=O)c4ccc(C)cc4)c(C(=O)O)c3)cc(C(=O)O)c2NS(=O)(=O)c2ccc(C)cc2)ccc1NS(=O)(=O)c1ccc(C)cc1 [Compound 1]" measurement="3.27 µM"

* * *

Examples of compounds with documented IC50 follow.
# target.or.system: HIV six-helix bundle of gp41 (IQN36 / C34) (Human immunodeficiency virus type 1 group M subtype B, UniProt P04578)
# assay.name: HIV-FRET IQN36/C34 homogeneous time resolved fluorescence test system (6-helix bundle formation)
measured.attribute: IC50 (nM)

query_smiles=Cc1ccc(S(=O)(=O)Nc2ccc(Oc3ccc(NS(=O)(=O)c4ccc(C)cc4)c(N(C)Cc4ccccc4)c3)cc2C(=O)O)cc1 measurement=2640
query_smiles=CNc1cc(Oc2ccc(NS(=O)(=O)c3ccc(C)cc3)c(C(=O)O)c2)ccc1NS(=O)(=O)c1ccc(C)cc1 measurement=2690
query_smiles=Cc1ccc(S(=O)(=O)Nc2ccc(Oc3ccc(NS(=O)(=O)c4ccc(C)cc4)c(C(=O)O)c3)cc2OCc2ccccc2)cc1 measurement=2720

* * *

# target.or.system: HIV six-helix bundle of gp41 (IQN36 / C34) (Human immunodeficiency virus type 1 group M subtype B, UniProt P04578)
# assay.name: HIV-FRET IQN36/C34 homogeneous time resolved fluorescence test system (6-helix bundle formation)
measured.attribute: IC50 (µM)

compound="CCCCCCN(c1ccc(Oc2ccc(NS(=O)(=O)c3ccc(C)cc3)c(C(=O)O)c2)cc1)S(=O)(=O)c1ccc(C)cc1 [Compound 4]" measured_attribute=IC50 value_unit=µM measurement=4.45
compound="CCCCCOc1cc(Oc2ccc(NS(=O)(=O)c3ccc(C)cc3)c(C(=O)O)c2)ccc1NS(=O)(=O)c1ccc(C)cc1 [Compound 5]" measured_attribute=IC50 value_unit=µM measurement=3.48
compound="Cc1ccc(S(=O)(=O)Nc2ccc(Oc3ccc(NS(=O)(=O)c4ccc(C)cc4)c(C(=O)O)c3)cc2Cc2ccccc2)cc1 [Compound 12]" measured_attribute=IC50 value_unit=µM measurement=2.09
compound="CCCCNc1cc(Oc2ccc(NS(=O)(=O)c3ccc(C)cc3)c(C(=O)O)c2)ccc1NS(=O)(=O)c1ccc(C)cc1 [Compound 9]" measured_attribute=IC50 value_unit=µM measurement=1.81
